Molecular target: human MRGPRX4 (Homo sapiens)
Assay: MRGPRX4 antagonist calcium (FLIPR, Fluo-8) assay in HEK293T cells stably expressing human MRGPRX4, agonist 0.2 μM deoxycholic acid-3-phosphoric acid
Settings: HEK293T cells stably expressing human MRGPRX4; antagonist mode; top conc. 30 μM, ten 3-fold serial dilutions; C may also mean <40% inhibition at 2 μM; read-out: Antagonist activity (IC50 class)
pIC50: −log10 of the molar value.
Listed molecules paired with reported pIC50
Measurement Kind: pIC50

O=C(O)c1cccc(-c2nc3cc(C(F)(F)F)cc(Cl)c3o2)c1 :: < 5.00
O=C(O)c1cc(Cl)cc(C2Cc3cc(C(F)(F)F)ccc3O2)c1 (stereo not shown) :: 5.00 to 6.00
Cc1c(-c2ccc(C(=O)O)cc2)n(C)c2cc(C(F)(F)F)ccc12 :: < 5.00
O=C(O)c1cccc(C2CCc3cc(C(F)(F)F)ccc3O2)c1F (stereo not shown) :: < 5.00

----------
Molecular target: human MRGPRX4 (Homo sapiens, UniProt Q96LA9)
Sequence (Q96LA9 whole entry): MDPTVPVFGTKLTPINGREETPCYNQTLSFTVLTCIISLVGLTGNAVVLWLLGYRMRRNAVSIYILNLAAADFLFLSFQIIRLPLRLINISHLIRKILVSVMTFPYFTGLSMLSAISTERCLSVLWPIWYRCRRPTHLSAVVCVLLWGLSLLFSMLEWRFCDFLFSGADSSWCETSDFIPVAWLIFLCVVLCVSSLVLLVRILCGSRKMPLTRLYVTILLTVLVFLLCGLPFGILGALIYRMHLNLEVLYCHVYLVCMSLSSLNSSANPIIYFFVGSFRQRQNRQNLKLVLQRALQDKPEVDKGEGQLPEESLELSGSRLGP
Test: MRGPRX4 antagonist calcium (FLIPR, Fluo-8) assay in HEK293T cells stably expressing human MRGPRX4, agonist 0.2 μM deoxycholic acid-3-phosphoric acid
Conditions: HEK293T cells stably expressing human MRGPRX4; antagonist mode; top conc. 30 μM, ten 3-fold serial dilutions; C may also mean <40% inhibition at 2 μM; read-out: Antagonist activity (IC50 class)
pIC50: −log10 of the molar value.
Measurement Kind: pIC50

Cn1c(-c2ccc(C(=O)O)cc2)cc2cc(Cl)c(Cl)cc21 [Example 12] :: < 5.00
CCOP(=O)(OCC)c1ccc(-c2cc3ccc(C(F)(F)F)cc3n2C)cc1 [Example 70] :: < 5.00
O=C(O)c1cc(F)cc(-c2nc3cc(C(F)(F)F)c(Cl)cc3o2)c1 [Example 46] :: < 5.00
O=C(O)c1ccc(-c2cc3ccc(C(F)(F)F)cc3n2C2CCCC2)cc1F [Example 31] :: 5.00 to 6.00
